Origin of the recorded values: the RNAGym collection of RNA variant scans (doi:10.7554/elife.90254)

B1: OR4K15 (parent)
chain: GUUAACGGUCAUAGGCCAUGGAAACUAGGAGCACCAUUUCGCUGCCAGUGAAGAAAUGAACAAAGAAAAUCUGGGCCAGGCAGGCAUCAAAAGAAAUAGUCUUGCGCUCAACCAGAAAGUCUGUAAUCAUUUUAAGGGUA

variants of: B1; test: self-cleavage, relative activity (ratio to wild type); higher = more cleavage; in vitro, sequencing; the parent is a self-cleaving ribozyme
Please use 1 whenever self-cleavage is not below 1, and -1 whenever it is.

GUUAACGGUCAUAGGCCACGGAAACUAGGAGCACCAUUUCGCUGCCAGUGAAGAAAUGAACAAAGAAAAUCUGGGCCAGGCAAGCAUCAAAAGAAAUAGUCUUGCGCUCAACCAGAAAGUCUGUAAUCAUUUUAAGGGUA ... 1
GUUAACGGUCAUAGGCCAUGGAAACUAGGAGCACCAUUUCGCCGCCAGUGAAGAAAUGAACAAAGAAAAUCUGGGCCAGGCAGGCAACAAAAGAAAUAGUCUUGCGCUCAACCAGAAAGUCUGUAAUCAUUUUAAGGGUA ... 1
GUUAACGGUCACAGGCCAUGGAAACUAGGAGCACCAUUUCGCUGCCAGUGAAGAAAUGAACAAAGAAAAUCUGGGCCAGGCAGGCAUCAAAAGAAAUAGUCUUGCGCUCAACCGGAAAGUCUGUAAUCAUUUUAAGGGUA ... -1
GUUAACGGUCAUAGGCCAUGGAAACUAGGAGCACCAUUUCGCUGCCAGUGAAGAAAUGAACAAAGAAAAUCUGGGCCAGGCAGGCAUCAAAAGAAAUAGUCUUGCGCUCAACCAGAAAGUCUGCGAUCAUUUUAAGGGUA ... 1
GUUAACGGUCAUAGGCCAUGGAAACUAGGAGCACCAUUUCGCUGCCAGUGAAGAAAUGAACAAAGAAAAUCUGGGCCAGGCAGGCAUCAAAAGAAAUAGUCUUGCGCUCAACCAGAAAGUCUGUAAUCACAUUAAGGGUA ... -1
GUUAACGGUCAUAGGCCAUGGAAACCAGGAGCACCAUUUCGCUGCCAGUGAAGAAAUGAACAAAGAAAGUCUGGGCCAGGCAGGCAUCAAAAGAAAUAGUCUUGCGCUCAACCAGAAAGUCUGUAAUCAUUUUAAGGGUA ... 1
GUUAACGGUCAUAGGCCAUGGAAACUAGGAGCACCAUUUCGCUGCCAGUGAAGAAAUGAACAAAGAAAAUCUGGGCCAGGCAGGCAUCAAAAGAAAUAGUCUUGCGCUCAGCCAGAAAGUCUGUAAUCAUUUUAAGGGCA ... -1
GUUAACGGUCAUAGGCCAUGGAAACUAGGAGCACCACUUCGCUGCCAGUGAAGAAAUGAACAAAGAAAAUCUGGGCCAGGCAGGCAUCAAAAGAAAUAGUCUUGCGCCCAACCAGAAAGUCUGUAAUCAUUUUAAGGGUA ... -1
GUUAACGGUCAUAGGCCAUGGAAACUAGGAGCACCAUUUCGCUGCCAGUGAAGAAAUGAACAAAGAAAAUCUGGGCCAGGCUGGCAUCAAAAGAAAUAGUCUUGCGCUCAACCAGAAAGUCUGUAAUCAUUUUAAGGAUA ... -1
GUUAACGGUCAUAGGCCAUGGAAACUAGGAGCACCAUUUCGCUGCCAGUGAAGAAAUGAGCAAAGAAAAUCUGGGCCAGGCUGGCAUCAAAAGAAAUAGUCUUGCGCUCAACCAGAAAGUCUGUAAUCAUUUUAAGGGUA ... -1
GUUAACGGUCAUAGGCCAUGGAAACUAGGAGCACCAUUUCGCUGCCUGUGAAGAAAUGAACAAAGAAAGUCUGGGCCAGGCAGGCAUCAAAAGAAAUAGUCUUGCGCUCAACCAGAAAGUCUGUAAUCAUUUUAAGGGUA ... -1
GUUAACGGUCAUAGGCCAUGGAAACCAGGAGCACCAUUUCGCUGCCAGUGAAGAAAUGAACAAAGAAAAUCUGGGCCAGGCAGGCAUCAAAAGAAGUAGUCUUGCGCUCAACCAGAAAGUCUGUAAUCAUUUUAAGGGUA ... 1
GUUAACGGUCAUAGGCCUUGGAUACUAGGAGCACCAUUUCGCUGCCAGUGAAGAAAUGAACAAAGAAAAUCUGGGCCAGGCAGGCAUCAAAAGAAAUAGUCUUGCGCUCAACCAGAAAGUCUGUAAUCAUUUUAAGGGUA ... 1
GUUAACAGUCAUAGGCCAUGGAAACUAGGAGCACCAUUUCGCUGCCAGUGAAGAAAUGAACCAAGAAAAUCUGGGCCAGGCAGGCAUCAAAAGAAAUAGUCUUGCGCUCAACCAGAAAGUCUGUAAUCAUUUUAAGGGUA ... 1
GUUAACGGUCAUAGGCCAUGGAAACUAGGAGCACCAUUUCGCUACCAGUGAAGAAAUGAACAAAGAAAAUCUGGGCCAGGCAGGCAUCAAAAGAGAUAGUCUUGCGCUCAACCAGAAAGUCUGUAAUCAUUUUAAGGGUA ... 1
GUUAACGGUCAUAGGCCAUGGAAACUAGGAGCACCAUUUCGCUGCCAGUGAUGAAAUGAACAGAGAAAAUCUGGGCCAGGCAGGCAUCAAAAGAAAUAGUCUUGCGCUCAACCAGAAAGUCUGUAAUCAUUUUAAGGGUA ... 1
GUUAACGGUCAUAGGCCAUGGAACCUAGGAGCACCAUUUCGCUGCCAGUGAAGAAAUGAACAAAGAAAAUCUGGGCCAGGCAGGCAUCAAAAGAAAUAGUCUUGCGCUCAACCAGAGAGUCUGUAAUCAUUUUAAGGGUA ... -1
GUUAACGGUCAUAGGCCAUGGAAACUAGGAGCACCAUUUCGCUGCCAGUGAAGAAAUGAACAAAGAAAAUCUGGGCCAGGCAGGCAUCUAAAGAAAUAGUCUUGCGCUCAACCAGAAAGUCUGUAAUCAUUUUAAGGGUA ... 1
GUUAACGGUCAUAGGCCAUGGAAACUAGGAGCACCAUUUCGCUGCCAGUGGAGAAAUGAACAAAGAAAACCUGGGCCAGGCAGGCAUCAAAAGAAAUAGUCUUGCGCUCAACCAGAAAGUCUGUAAUCAUUUUAAGGGUA ... -1
GUUAACGGUCAUAGGCCAUGGAAACUAGGAGCACCAUUUCGCUGCCAGUGAAGAAAUGAACAAGGAAAAUCUGGGCCAGGCAGGCAUCAAAAGAUAUAGUCUUGCGCUCAACCAGAAAGUCUGUAAUCAUUUUAAGGGUA ... -1
GUUAACGGUCAUAGGCCAUGGAAACUAGGAGCACCAUUUCGCUGCCAGUGAAGAAAUGAACAAAGAAAAUCUGGGCCAGGCAGGCAUCAAAAGAAAUAGUCUUGCGCUCAACCAGAACGUCUGUAAUCACUUUAAGGGUA ... -1
GUUAACGGUCAUAGGCCAUGGAAACUAGGAGCACCAUUUCGCUGCCAGUGGAGAAAUGAACAAAGAGAAUCUGGGCCAGGCAGGCAUCAAAAGAAAUAGUCUUGCGCUCAACCAGAAAGUCUGUAAUCAUUUUAAGGGUA ... 1
GUUAACGGUCAUAGGCCGUGGAAACUAGGAGCACCAUUUCGCUGCCAGUGAAGAAAUGAAUAAAGAAAAUCUGGGCCAGGCAGGCAUCAAAAGAAAUAGUCUUGCGCUCAACCAGAAAGUCUGUAAUCAUUUUAAGGGUA ... 1
GUUAACGGUCAUAGGCCAUGGAAACUAGGAGCACCAUUUCGCUGCCAGUGAUGAAAUGAACAAAGAAAAUCUGGGCCAGGCGGGCAUCAAAAGAAAUAGUCUUGCGCUCAACCAGAAAGUCUGUAAUCAUUUUAAGGGUA ... 1
GUUAACGGUCAUAGGACAUGGAAACUAGGAGCACCAUUUCGCUGCCAGUGAAGAAAUGAACAAAGAAAAUCUGGGCCAGGCAGGCAUCAAAAGAAAUAGUCUUGCGCUCAACCAGAAAGUCUGUAACCAUUUUAAGGGUA ... -1
GUUAACGGUCAUAGGCCAUGGAAACUAGGAGCACCAUUUCGCUGCCAGUGAAGAAAUGAACAAAGAAAAUCUGGGCCAGGCAGGCAUCAAAAGAAAUAGUCUUGCGCCCAACCAGAAAGUCUGUUAUCAUUUUAAGGGUA ... -1
GUUAACGGUCAUAGGCCAUGGAAACUAGGAGCACCAUUUCGCUGCCAGUGAAGAAAUGAACAAAGAAAAUCUGGGCCAGGCAGGCAUCAAAGGAAAUAGUCUUGCGCUCAACCAGUAAGUCUGUAAUCAUUUUAAGGGUA ... -1
GUUAACGGUCAUGGGCCAUGGAAACUAGGAGCACCAUUUCGCUGCCAGUGAAGAAAUGAACAAAGAAAAUCUGGGCCAGGCAGGCAUCAAAAGAAAUAGUCUUGCGCUCAACCGGAAAGUCUGUAAUCAUUUUAAGGGUA ... -1
GUUAACGGUCAUAGGCCAUGGAAACUAGGAGCACCAUUUCGCUGCCAGUGAAGAAAUGAACAAAGAAAAUCUGGGCCAGGCAGGCGUCAAAAGAAAUAGUCUUGCGCUCAACCAAAAAGUCUGUAAUCAUUUUAAGGGUA ... -1
GUUAACGGUCAUAGGCCAUGGAAACUAGGAGCACCAUUUCGCCGCCAGUGAAGAAAUGAACAAAGAAAAUCUGCGCCAGGCAGGCAUCAAAAGAAAUAGUCUUGCGCUCAACCAGAAAGUCUGUAAUCAUUUUAAGGGUA ... -1
GUUAACGGUCAUAGGCCAUGAAAACUAGGAGCACCAUUUCGCUGCCAGUGAAGAAAUGAACAAAGAAAAUCUGGGCCAGGCAGGCAUCAAAAGAAAUAGUCUUGCGCUCAACCAGAAAGUCUGUGAUCAUUUUAAGGGUA ... -1
GUUAACGGUCAUAGGCCAUGGAAACUAGGAGCACCAUUUCGCAGCCUGUGAAGAAAUGAACAAAGAAAAUCUGGGCCAGGCAGGCAUCAAAAGAAAUAGUCUUGCGCUCAACCAGAAAGUCUGUAAUCAUUUUAAGGGUA ... 1
GUUAACGGCCAUAGGCCAUGGAAACUAGGAGCACCAUUUCGCUGCCAGUGAAGAAAUGAACAAAGAAAAUCUGGGACAGGCAGGCAUCAAAAGAAAUAGUCUUGCGCUCAACCAGAAAGUCUGUAAUCAUUUUAAGGGUA ... -1
